Values were extracted from patent US20220177583A1.

Property: pEC50; scope: individual binders
- measuredTarget: CLDN3/4 endogenously expressed on LS513 and MCF7 cells
- protocolSummary: FACS dose curve, labelled mAb, MCF7 cells
The read-out pEC50 is expressed as -log10 of concentration in moles per litre.

Inquiry: # lookup: pEC50 of AB17 (antibody, V domains shown) VH: QVQLQQSGAELAKPGASVKMSCKASGYTFTGYWMHWVKQRPGQGLEWLGYINPSTGYTESNQKFKDKATLTADKSSTTAYMQLRSLTPEDSAVYYCAREGITTVLVDYWGQGTTLTVSS VL: QIVLTQSPAIMSASLGERVTMTCTASSSVSSSYLHWYQQKPGSSPKLWIYSTSNLASGVPARFSGSGSGTSYSLTISSMEAEDAATYYCHQYHRSPPTFGAGTKLELK
Reply text: 5.30

Kindly review the next binder as well.
Inquiry: # lookup: pEC50 of AB12 (antibody, V domains shown) VH: EVKLMESGGDLVKPGGSLKLSCAASGFTFSSYAMSWVRQTPEKRLEWVASIRSGGTTYYPDSVKGRFTISRDNARNILYLRMSSLRSEDTAIYYCAKVGGNPYPMDYWGQGTSVTVSS VL: DIQMIQSPSSMFASLGDRVSLSCRASQDIGGNLDWYQQKPGGTIKLLIYSTSNLNSGVPSRFSGSGSGSDYSLTITSLESEDFADYYCLQRNAYPLTFGAGTKLELK
Reply text: 5.30
